tested-on: UniProtKB Q96LB1
test-name: MRGPRX2 IP-1 Gq HTRF assay in HEK293 cells stably expressing human MRGPRX2, Cortistatin-14 at EC75
stated-conditions: 2 hours at 37° C., cellular IP-1
Listed below: EC50 values for each entry.

Recorded results for 3 molecules are shown here.
>>> experimental_value("CS(=O)(=O)Nc1cccc(C(=O)N[C@H]2CC(Nc3cc(C(F)(F)F)nc4ccc(Cl)cc34)CN(C(=O)Nc3ccccc3)C2)c1 (stereo partly shown) [Example 20]")
"100 to 1000 nM"
>>> experimental_value("CC(C)(C)C(=O)N1C[C@@H](NC(=O)c2cccc(NS(C)(=O)=O)c2)C[C@@H](Nc2cc(C(F)(F)F)nc3ccc(Cl)cc23)C1 (racemic) [Example 15]")
"100 to 1000 nM"
>>> experimental_value("CC(=O)N1C[C@@H](NC(=O)c2cn(C(F)F)nc2C(F)F)C[C@@H](Nc2cc(C(F)(F)F)nc3ccc(Cl)cc23)C1 [Example 59]")
"< 100 nM"

Challenge: Dear colleague, I am looking for the recorded EC50 of the following molecule: CC(=O)N1C[C@@H](NC(=O)c2cnn(CC3CC3)c2)C[C@@H](Nc2cc(C(F)(F)F)nc3ccc(Cl)cc23)C1 [Example 61]
Response given: < 100 nM

Challenge: Dear colleague, I am looking for the recorded EC50 of the following molecule: CC(=O)N1C[C@@H](NC(=O)c2cn(CC(F)(F)F)nn2)C[C@@H](Nc2cc(C(F)(F)F)nc3ccc(Cl)cc23)C1 [Example 33]
Response given: 100 to 1000 nM

Challenge: Dear colleague, I am looking for the recorded EC50 of the following molecule: CC(=O)N1C[C@@H](NC(=O)c2cnn(C3CCCCC3)c2)C[C@@H](Nc2cc(C(F)(F)F)nc3ccc(Cl)cc23)C1 [Example 68]
Response given: < 100 nM

Challenge: Dear colleague, I am looking for the recorded EC50 of the following molecule: CC(=O)N1C[C@H](Nc2cc(C(F)(F)F)nc3ccc(Cl)cc23)C[C@H](N(C)C(=O)c2cnn(C)c2)C1 [Example 47]
Response given: > 1000 nM

Challenge: Dear colleague, I am looking for the recorded EC50 of the following molecule: CC(=O)N1C[C@H](Nc2cc(C(F)(F)F)nc3ccc(Cl)cc23)C[C@H](n2cc(-c3cccc(NS(C)(=O)=O)c3)nn2)C1 [Example 55]
Response given: 100 to 1000 nM

Challenge: Dear colleague, I am looking for the recorded EC50 of the following molecule: CC(=O)N1CC(Nc2cc(C(F)(F)F)nc3ccccc23)C[C@H](NC(=O)c2cccc(NS(C)(=O)=O)c2)C1 (stereo partly shown) [Example 22]
Response given: 100 to 1000 nM

Challenge: Dear colleague, I am looking for the recorded EC50 of the following molecule: CC(=O)N1C[C@@H](NC(=O)c2ccc(F)cc2F)C[C@@H](Nc2cc(C(F)(F)F)nc3ccc(Cl)cc23)C1 [Example 27]
Response given: 100 to 1000 nM

Challenge: Dear colleague, I am looking for the recorded EC50 of the following molecule: CC(=O)N1C[C@@H](NC(=O)c2cnn(-c3ccc(F)cc3)c2)C[C@@H](Nc2cc(C(F)(F)F)nc3ccc(Cl)cc23)C1 [Example 70]
Response given: 100 to 1000 nM

Challenge: Dear colleague, I am looking for the recorded EC50 of the following molecule: CNCC(=O)N1C[C@@H](NC(=O)c2cccc(NS(C)(=O)=O)c2)C[C@@H](Nc2cc(C(F)(F)F)nc3ccc(Cl)cc23)C1 [Example 12]
Response given: 100 to 1000 nM

Challenge: Dear colleague, I am looking for the recorded EC50 of the following molecule: CS(=O)(=O)Nc1cccc(C(=O)N[C@@H]2CNC[C@H](Nc3ccc(C#N)c(C(F)(F)F)c3)C2)c1 [Example 45]
Response given: > 1000 nM

====

tested-on: MRGPRX2 LAD2 (Homo sapiens, UniProt Q96LB1)
Construct: host or cells: LAD2 human mast cells
test-name: LAD2 β-hexosaminidase release assay (degranulation), Cortistatin-14 at EC75
Format: cell-based
stated-conditions: LAD2 cells; 1 hour compound incubation, Cortistatin-14 at EC75 for 30 minutes; percent degranulation (β-hexosaminidase)
Experimental: LAD2 cells obtained from the NIH were cultured in StemPro34 (Gibco) serum-free media supplemented with GlutaMax, penicillin and streptomycin, and 100 ng/mL SCF (Invitrogen). Cells were maintained in a 37° C., 5% CO2 humidified incubator at a concentration of 2-5E5 cells/mL, with hemidepletion once a week. One day prior to the assay, cells were starved of SCF at a concentration of 2.3E5 cells/mL. […] The plates were read on a Perkin Elmer Envision plate reader at an Abs of 405 nanometers. […]
Listed below: EC50 values for each entry.

Recorded results for 4 compounds are shown here.
>>> experimental_value("CC(C)(O)Cn1cc(C(=O)N[C@H]2C[C@@H](Nc3cc(C(F)(F)F)nc4ccc(Cl)cc34)CN(C3CC(F)(F)C3)C2)c(Cl)n1")
"100 to 1000 nM"
>>> experimental_value("CC(C)(O)Cn1cc(C(=O)N[C@H]2C[C@@H](Nc3cc(C(F)(F)F)nc4ccc(Cl)cc34)CN(C(=O)C(F)F)C2)c(Cl)n1")
"< 100 nM"
>>> experimental_value("C[C@@H]1CCCN1C(=O)N[C@H]1C[C@@H](Nc2cc(C(F)(F)F)nc3ccc(Cl)cc23)CN(C(=O)C(F)F)C1")
"< 100 nM"
>>> experimental_value("CC(=O)N1C[C@@H](NC(=O)c2cn(CC(C)(C)O)nc2C(F)F)C[C@@H](Nc2cc(C(F)(F)F)nc3ccc(Cl)cc23)C1")
"< 100 nM"

Challenge: Lookup: EC50 / MRGPRX2 LAD2 (Homo sapiens, UniProt Q96LB1) / `CC(=O)N1C[C@@H](NC(=O)N2CCc3cn(C)nc3C2)C[C@@H](Nc2cc(C(F)(F)F)nc3ccc(Cl)cc23)C1`
Response given: < 100 nM

Challenge: Lookup: EC50 / MRGPRX2 LAD2 (Homo sapiens, UniProt Q96LB1) / `CNC(=O)N1C[C@@H](NC(=O)c2cccc(NS(C)(=O)=O)c2)C[C@@H](Nc2cc(C(F)(F)F)nc3ccc(Cl)cc23)C1`
Response given: 100 to 1000 nM

====

tested-on: MRGPRX2 LAD2 (Homo sapiens, UniProt Q96LB1)
test-name: LAD2 β-hexosaminidase release assay (degranulation), Cortistatin-14 at EC75
stated-conditions: LAD2 cells; 1 hour compound incubation, Cortistatin-14 at EC75 for 30 minutes; percent degranulation (β-hexosaminidase)
pEC50: −log10 of the molar value.
Listed below: pEC50 values for each entry.

Recorded results for 3 compounds are shown here.
>>> experimental_value("CC(=O)N1C[C@@H](NC(=O)c2cn(CC(F)(F)F)nc2C2CC2)C[C@@H](Nc2cc(C(F)(F)F)nc3c(F)cc(Cl)cc23)C1")
"> 7.00"
>>> experimental_value("O=C(N[C@H]1C[C@@H](Nc2cc(C(F)(F)F)nc3ccc(Cl)cc23)CN(C(=O)[C@@H]2CC2(F)F)C1)c1cn(CC(F)(F)F)nc1C1CC1")
"> 7.00"
>>> experimental_value("COCc1nn(CC(F)(F)F)cc1C(=O)N[C@H]1C[C@@H](Nc2cc(C(F)(F)F)nc3ccc(Cl)cc23)CN(C(C)=O)C1")
"> 7.00"

Challenge: Dear colleague, I am looking for the recorded pEC50 of the following compound: `CS(=O)(=O)Nc1cccc(C(=O)N[C@H]2C[C@@H](Nc3cc(C(F)(F)F)nc4ccc(Cl)cc34)CN(C(=O)C(F)F)C2)c1`
Response given: > 7.00

Challenge: Dear colleague, I am looking for the recorded pEC50 of the following compound: CC(C)(O)C(O)Cn1cc(C(=O)N[C@H]2C[C@@H](Nc3cc(C(F)(F)F)nc4ccc(Cl)cc34)CN(C(=O)C(F)F)C2)c(Cl)n1 (stereo partly drawn)
Response given: > 7.00

Challenge: Dear colleague, I am looking for the recorded pEC50 of the following compound: `CC(=O)N1C[C@@H](NC(=O)c2cn(CC(F)(F)F)nc2C2CCC2)C[C@@H](Nc2cc(C(F)(F)F)nc3ccc(Cl)cc23)C1`
Response given: > 7.00

Challenge: Dear colleague, I am looking for the recorded pEC50 of the following compound: `COc1ccc(C(=O)N[C@H]2C[C@@H](Nc3cc(C(F)(F)F)nc4ccc(Cl)cc34)CN(C(C)=O)C2)cc1`
Response given: > 7.00

Challenge: Dear colleague, I am looking for the recorded pEC50 of the following compound: `CC(=O)N1C[C@@H](NC(=O)c2cnn(C3CC3)c2)C[C@@H](Nc2cc(C(F)(F)F)nc3ccc(Cl)cc23)C1`
Response given: 6.00 to 7.00

====

Listed below: pEC50 values for each entry.
tested-on: human MRGPRX2 (Homo sapiens, UniProt Q96LB1)
Sequence (Q96LB1 whole entry): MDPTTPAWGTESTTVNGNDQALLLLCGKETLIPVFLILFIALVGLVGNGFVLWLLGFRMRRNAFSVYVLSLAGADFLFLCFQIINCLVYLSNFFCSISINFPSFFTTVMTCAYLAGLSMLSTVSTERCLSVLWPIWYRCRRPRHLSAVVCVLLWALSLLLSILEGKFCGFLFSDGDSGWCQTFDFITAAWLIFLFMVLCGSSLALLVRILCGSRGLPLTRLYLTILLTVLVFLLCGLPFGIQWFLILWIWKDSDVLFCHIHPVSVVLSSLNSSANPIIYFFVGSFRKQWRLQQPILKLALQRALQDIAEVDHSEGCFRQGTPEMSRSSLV
test-name: MRGPRX2 IP-1 Gq HTRF assay in HEK293 cells stably expressing human MRGPRX2, Cortistatin-14 at EC75
stated-conditions: 2 hours at 37° C., cellular IP-1
pEC50: −log10 of the molar value.

>>> experimental_value("CC(=O)N1C[C@@H](NC(=O)c2cccc(C#N)c2)C[C@@H](Nc2cc(C(F)(F)F)nc3ccc(Cl)cc23)C1")
"> 7.00"
>>> experimental_value("CC(=O)N1C[C@@H](NC(=O)c2ccc(OC(F)(F)F)cc2)C[C@@H](Nc2cc(C(F)(F)F)nc3ccc(Cl)cc23)C1")
"6.00 to 7.00"
>>> experimental_value("CS(=O)(=O)Nc1cccc(C(=O)N[C@H]2CC(Nc3cc(C(F)(F)F)nc4ccc(Cl)cc34)CN(C(=O)C3CCC3)C2)c1 (stereo partly shown)")
"6.00 to 7.00"
>>> experimental_value("COc1ccc(C(=O)N[C@H]2C[C@@H](Nc3cc(C(F)(F)F)nc4ccc(Cl)cc34)CN(C(C)=O)C2)cc1")
"> 7.00"
>>> experimental_value("CC(=O)N1C[C@@H](NC(=O)c2cccc(S(C)(=O)=O)c2)C[C@@H](Nc2cc(C(F)(F)F)nc3ccc(Cl)cc23)C1")
"> 7.00"

Challenge: Dear colleague, I am looking for the recorded pEC50 of the following molecule: `CS(=O)(=O)Nc1cccc(NC(=O)[C@@H]2COC[C@H](Nc3cc(C(F)(F)F)nc4ccc(Cl)cc34)C2)c1`
Response given: > 7.00

Challenge: Dear colleague, I am looking for the recorded pEC50 of the following molecule: `CC(=O)N1C[C@@H](NC(=O)c2ccccc2F)C[C@@H](Nc2cc(C(F)(F)F)nc3ccc(Cl)cc23)C1`
Response given: 6.00 to 7.00
